Test system: phospho-STAT panel (pSTAT3/4/5), CD3+ T cells
assayInfo: phospho-STAT induction by IL-6, MesoScale Discovery phospho-STAT panel
Type: cell-based, human
conditionSet: CD3+ T cells, IL-6 + drug 5 uM; MSD signal (No stim. 1964, IL-6 alone 15405)
# pSTAT4 annotations
Reply with the value as a number alone.

{"smilesCode": "C[C@@H]1CCN(C(=O)CC#N)C[C@@H]1N(C)c1ncnc2[nH]ccc12", "measuredNumber": 2033}

Req: Dear colleague, I am looking for the recorded pSTAT4 of the following compound: C[C@@H]1C[C@H]2[C@@H]3CCC4=CC(=O)C=C[C@]4(C)[C@@]3(F)[C@@H](O)C[C@]2(C)[C@@]1(O)C(=O)CO
Resp: 11925

Req: Moving on to C[C@H]1C[C@@H]2[C@H]([C@@H](O)C[C@@]3(C)[C@H]2CC[C@]3(O)C(=O)CO)[C@@]2(C)C=CC(=O)C=C12
Resp: 11282

Req: Now the same for O=C(Nc1nc2cccc(-c3ccc(CN4CCS(=O)(=O)CC4)cc3)n2n1)C1CC1
Resp: 2172

Req: Same again, this time with CC[C@@H]1CN(C(=O)NCC(F)(F)F)C[C@@H]1c1cnc2cnc3[nH]ccc3n12
Resp: 2229
